Measured values drawn from ChEMBL document CHEMBL1130095 for this set.

Molecular target: Tubulin (Bos taurus, UniProt Q6B856+Q862L2+Q862F3)
Experiment: Evaluated for inhibition of tubulin polymerization.
Type: functional
Readings of IC50 for the listed compounds
measure: IC50 (µM)

# compound, measure, readoutUnit, readoutRelation, value
records = [
    ("CCOc1cc2c(cc1O)C=CC1C2CC[C@@]2(C)C1CC[C@@H]2O (some centres undefined)", "IC50", "µM", "=", 4.4),
    ("CC(=O)Oc1cc2c(cc1OCC(F)(F)F)[C@H]1CC[C@]3(C)[C@@H](OC(C)=O)CC[C@H]3[C@@H]1CC2=O", "IC50", "µM", ">", 40),
    ("CCOc1cc2c(cc1O)/C(=N\\N)C[C@@H]1[C@@H]2CC[C@]2(C)[C@@H](O)CC[C@@H]12", "IC50", "µM", "=", 4.3),
    ("CCOc1cc2c(cc1O)C(N)C[C@@H]1[C@@H]2CC[C@]2(C)[C@@H](O)CC[C@@H]12 (some centres undefined)", "IC50", "µM", ">", 40),
]
